- Test system: human prostate cancer cells (PC3)
- test.name: MTT dye reduction viability test, PC3
- Format: cell-based
- conditions: Homo sapiens; PC3, 40 µM, 72 h, representative MTT result (Table S1 A)
In this section we review reported viability at 40 µM values for a set of molecules.
Respond with a number, then the unit of measure.

The examples below pair each entry with its known result.
CC=CC=CC(=O)Oc1ccc2c(=O)cc(-c3ccccc3)oc2c1 [7-Sorbic-Flavone, 7-hydroxy-flavone sorbic ester] :: 93.6%
CCC=CCC=CCC=CCCCCCCCC(=O)Oc1ccc2c(c1)C(=O)CC(c1ccccc1)O2 (stereo not drawn) [6-Linolenic-Flavanone, 6-hydroxy-flavanone linolenic ester] :: 79.5%
CCCCCC=CCC=CCCCCCCCC(=O)Oc1ccc2c(=O)cc(-c3ccccc3)oc2c1 [7-Linoleic-Flavone, 7-hydroxy-flavone linoleic ester] :: 46.7%
CCCCCCCCC=CCCCCCCCC(=O)Oc1ccc2c(c1)C(=O)CC(c1ccccc1)O2 (stereo not drawn) [6-Oleic-Flavanone, 6-hydroxy-flavanone oleic ester] :: 41.4%
CCCCCCCCCCCCCCCCCC(=O)Oc1ccc2c(c1)C(=O)CC(c1ccccc1)O2 (stereo not drawn) [6-Stearic-Flavanone, 6-hydroxy-flavanone stearic ester] :: 99.6%

Next molecule, viability at 40 µM to be filled in.
// returns reported viability at 40 µM for input CC=CC=CC(=O)Oc1ccc2c(c1)C(=O)CC(c1ccccc1)O2 (stereo not drawn) [6-Sorbic-Flavanone, 6-hydroxy-flavanone sorbic ester]
82.1%

###

endpoint.name: melting point

Below, 4 compounds whose answers are already recorded.
CC=CC=CC(=O)Oc1ccc2c(=O)cc(-c3ccccc3)oc2c1 [7-Sorbic-Flavone, 7-hydroxy-flavone sorbic ester] :: 137.8 to 139.7 °C
CCCCCCCCCCCCCCCCCC(=O)Oc1ccc2c(=O)cc(-c3ccccc3)oc2c1 [7-Stearic-Flavone, 7-hydroxy-flavone stearic ester] :: 84.5 to 85.7 °C
CC=CC=CC(=O)Oc1ccc2c(c1)C(=O)CC(c1ccccc1)O2 (centres unmarked) [6-Sorbic-Flavanone, 6-hydroxy-flavanone sorbic ester] :: 129.4 to 130.8 °C
CCCCCCCCC=CCCCCCCCC(=O)Oc1ccc2c(c1)C(=O)CC(c1ccccc1)O2 (centres unmarked) [6-Oleic-Flavanone, 6-hydroxy-flavanone oleic ester] :: 46.2 to 47.1 °C

For the compound shown here, CCCCCCCCC=CCCCCCCCC(=O)Oc1ccc2c(=O)cc(-c3ccccc3)oc2c1 [7-Oleic-Flavone, 7-hydroxy-flavone oleic ester] , give the reported melting point.
73.3 to 74.5 °C

###

- test.name: MTT dye reduction viability test, HaCaT
- Format: cell-based, human
- conditions: human, HaCaT cells (immortal keratinocytes), HaCaT, 100 μM, 72 h incubation; read-out: cells viability compared to control cells
endpoint.name: viability at 72 h, 100 µM (%)
Number in %, nothing else.

For the compound shown here, O=C1CC(c2ccccc2)Oc2ccc(O)cc21 (stereo not shown) [6-Hydroxy-Flavanone, 6-hydroxy-flavanone, reference compound] , give the reported viability at 72 h, 100 µM.
73

###

- test.name: MTT dye reduction viability test, HaCaT
- Assay type: cell-based, human
- conditions: human, HaCaT cells (immortal keratinocytes), HaCaT, 20 µM, 72 h, representative MTT result (Table S1 B)
- Procedure: We have chosen two types of cell culture lines: human prostate cancer cells (PC3) and normal human immortal keratinocyte cells (HaCaT) (Table 1). […] To assess the cells growth inhibition, the MTT dye reduction test was preformed based on the method described by Präbst et al.. […] The optical density was measured with an UVM 340 (ASYS Hitech GmbH, Austria) microplate reader at 570 nm. Replicates of three wells for each dosage, including vehicle control, were analyzed for each experiment. […]
endpoint.name: viability at 72 h, 20 µM (%)
Hi! Could you send only the number? It should be in %, unit omitted.

CCC=CCC=CCC=CCCCCCCCC(=O)Oc1ccc2c(c1)C(=O)CC(c1ccccc1)O2 (stereo not drawn) [6-Linolenic-Flavanone, 6-hydroxy-flavanone linolenic ester] :: 75.2
CC=CC=CC(=O)Oc1ccc2c(c1)C(=O)CC(c1ccccc1)O2 (stereo not drawn) [6-Sorbic-Flavanone, 6-hydroxy-flavanone sorbic ester] :: 96.7
CCCCCC=CCC=CCCCCCCCC(=O)Oc1ccc2c(=O)cc(-c3ccccc3)oc2c1 [7-Linoleic-Flavone, 7-hydroxy-flavone linoleic ester] :: 73.2
CCCCCCCCCCCCCCCCCC(=O)Oc1ccc2c(=O)cc(-c3ccccc3)oc2c1 [7-Stearic-Flavone, 7-hydroxy-flavone stearic ester] :: 65.3
O=c1cc(-c2ccccc2)oc2ccc(O)cc12 [Compound 13, 6-Hydroxy-Flavone, reference compound] :: 83.8

Could you now look at the following compound, please?
Entry CCCCCCCCC=CCCCCCCCC(=O)Oc1ccc2c(=O)cc(-c3ccccc3)oc2c1 [7-Oleic-Flavone, 7-hydroxy-flavone oleic ester] : reported viability at 72 h, 20 µM = ?
79.3

Reference source for all entries: paper PMC8777613
